# assay_details: Stability in mouse liver microsomes assessed as CYP450-mediated metabolism by measuring parent compound remaining at 1 uM measured after 60 mins in presence of NADPH generating system by LC-MS/MS analysis
# Assay type: ADME
# details: 1 h
Could you please report measured Parent compound remaining for the items listed next?
# number only, unit % dropped from output

Reported Parent compound remaining, compound `COc1ccc(-c2c(C)nc3c(N4CC[C@@H](NS(=O)(=O)c5cccs5)C4)cc(C)nn23)cc1OC` : ____
78

So what does the record say about Parent compound remaining for `CC(=O)N[C@@H]1CCN(c2cc(C)nn3c(-c4ccc(OC(F)(F)F)cc4)c(C)nc23)C1` ?
72

Return reported Parent compound remaining; argument: `COc1ccc(-c2c(C)nc3c(N4CC[C@@H](NS(=O)(=O)c5ccc(C(F)(F)F)cc5)C4)cc(C)nn23)cc1OC`
15
